- Test: AUC (0 to 24 hrs) in Sprague-Dawley rat at 1 mg/kg, iv
- Assay type: ADME, organism-based
- Design: time < 24 hr, dose 1 mg/kg, route intravenous
- Measurement conditions: plasma
Property: AUC(0-t) at 24 h (ng·h/mL)

INSERT INTO assay_data (compound, property, reported) VALUES
  ('O=C(O[C@@H]1COc2nc([N+](=O)[O-])cn2C1)N1CCN(c2ccc(OC(F)(F)F)cc2)CC1', 'AUC(0-t) at 24 h', 5930);

###

- Test: AUC (0 to infinity) in CD-1 mouse plasma at 40 mg/kg, po
- Type: ADME, organism-based
- Design: dose 40 mg/kg, route oral, time infinity
Property: AUC(0-inf) (ng·h/mL)

INSERT INTO results (compound, reported) VALUES
  ('O=C(Nc1ccc(-c2ccc(OC(F)(F)F)cc2)cc1)N[C@@H]1COc2nc([N+](=O)[O-])cn2C1', 6610),
  ('O=C(O[C@@H]1COc2nc([N+](=O)[O-])cn2C1)N1CCN(c2ccc(OC(F)(F)F)cc2)CC1', 53400),
  ('O=C(Nc1ccc(-c2ccc(OC(F)(F)F)cc2)cc1)O[C@@H]1COc2nc([N+](=O)[O-])cn2C1', 44900),
  ('O=C(Nc1ccc(OC(F)(F)F)cc1)O[C@@H]1COc2nc([N+](=O)[O-])cn2C1', 28500);
